- System Under Test: unlabeled human VEGF (ELISA coat) (human, UniProt P15692-4 27-191, limits assumed)
- Sequence (P15692 other isoform, or with tags, fused parts or gaps limits assumed): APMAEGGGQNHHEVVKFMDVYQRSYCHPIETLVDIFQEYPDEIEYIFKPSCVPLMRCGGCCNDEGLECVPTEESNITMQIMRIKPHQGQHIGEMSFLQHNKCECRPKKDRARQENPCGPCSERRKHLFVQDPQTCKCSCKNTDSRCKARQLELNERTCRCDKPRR
- Experiment Notes: ELISA 1 hr, EC50 WT/EC50 mutant
ELISA 1hr binding less than 4 fold is Y; ELISA 1hr binding greater than or equal to 4 fold is N.

Consider the worked cases shown below.
Input T28 Y (anti-VEGF IgG) (antibody, V domains shown, copies: 2 + 2) VH: EVQLVESGGGLVQPGGSLRLSCAASGYYFTNYGMNWVRQAPGKGLEWVGWINTYTGEPTYAADFKRRFTFSLDTSKSTAYLQMNSLRAEDTAVYYCAKYPHYYGSSHWYFDVWGQGTLVTVSS VL: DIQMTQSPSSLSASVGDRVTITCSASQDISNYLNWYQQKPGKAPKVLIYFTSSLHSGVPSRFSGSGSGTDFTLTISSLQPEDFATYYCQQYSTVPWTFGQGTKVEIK ; condition: ELISA 1hr binding strictly below 4 fold. Does it hold?
N

Also 93 (antibody, human IgG1, V domains shown) VH: EVQLVESGGGLVQPGGSLRLSCAASGYTFTNYGMNWVRQAPGKGLEWVGWINTYTGEPTYAADFKRRFTFSLDTSKSTAYLQMNSLRAEDTAVYYCAKYPEYYGSSHWYFDVWGQGTLVTVSS VL: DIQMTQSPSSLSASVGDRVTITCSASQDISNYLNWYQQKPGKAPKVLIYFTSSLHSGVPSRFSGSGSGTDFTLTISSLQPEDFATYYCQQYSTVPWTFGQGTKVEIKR ?
N

Also T30 K (anti-VEGF IgG) (antibody, V domains shown, copies: 2 + 2) VH: EVQLVESGGGLVQPGGSLRLSCAASGYTFKNYGMNWVRQAPGKGLEWVGWINTYTGEPTYAADFKRRFTFSLDTSKSTAYLQMNSLRAEDTAVYYCAKYPHYYGSSHWYFDVWGQGTLVTVSS VL: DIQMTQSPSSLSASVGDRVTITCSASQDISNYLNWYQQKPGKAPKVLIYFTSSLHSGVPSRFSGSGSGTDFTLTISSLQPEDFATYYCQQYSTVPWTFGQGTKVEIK ?
Y

Also T30 R (anti-VEGF IgG) (antibody, V domains shown, copies: 2 + 2) VH: EVQLVESGGGLVQPGGSLRLSCAASGYTFRNYGMNWVRQAPGKGLEWVGWINTYTGEPTYAADFKRRFTFSLDTSKSTAYLQMNSLRAEDTAVYYCAKYPHYYGSSHWYFDVWGQGTLVTVSS VL: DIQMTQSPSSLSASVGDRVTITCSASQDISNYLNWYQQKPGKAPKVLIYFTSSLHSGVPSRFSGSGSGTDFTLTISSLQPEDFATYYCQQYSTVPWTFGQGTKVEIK ?
Y

Also T30 W (anti-VEGF IgG) (antibody, V domains shown, copies: 2 + 2) VH: EVQLVESGGGLVQPGGSLRLSCAASGYTFWNYGMNWVRQAPGKGLEWVGWINTYTGEPTYAADFKRRFTFSLDTSKSTAYLQMNSLRAEDTAVYYCAKYPHYYGSSHWYFDVWGQGTLVTVSS VL: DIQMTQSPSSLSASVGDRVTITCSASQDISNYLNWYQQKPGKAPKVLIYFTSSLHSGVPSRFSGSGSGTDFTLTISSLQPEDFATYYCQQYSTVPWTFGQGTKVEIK ?
Y

Next:
Input T28 G (anti-VEGF IgG) (antibody, V domains shown, copies: 2 + 2) VH: EVQLVESGGGLVQPGGSLRLSCAASGYGFTNYGMNWVRQAPGKGLEWVGWINTYTGEPTYAADFKRRFTFSLDTSKSTAYLQMNSLRAEDTAVYYCAKYPHYYGSSHWYFDVWGQGTLVTVSS VL: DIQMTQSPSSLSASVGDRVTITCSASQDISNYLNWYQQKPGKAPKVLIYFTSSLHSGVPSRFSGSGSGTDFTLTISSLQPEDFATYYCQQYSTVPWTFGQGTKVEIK ; condition: ELISA 1hr binding strictly below 4 fold. Does it hold?
N

Where these numbers come from: patent US20140154255A1
